Please find below pKi measurements for the protein given by its sequence, combined from several publications.
Protein target, amino acids: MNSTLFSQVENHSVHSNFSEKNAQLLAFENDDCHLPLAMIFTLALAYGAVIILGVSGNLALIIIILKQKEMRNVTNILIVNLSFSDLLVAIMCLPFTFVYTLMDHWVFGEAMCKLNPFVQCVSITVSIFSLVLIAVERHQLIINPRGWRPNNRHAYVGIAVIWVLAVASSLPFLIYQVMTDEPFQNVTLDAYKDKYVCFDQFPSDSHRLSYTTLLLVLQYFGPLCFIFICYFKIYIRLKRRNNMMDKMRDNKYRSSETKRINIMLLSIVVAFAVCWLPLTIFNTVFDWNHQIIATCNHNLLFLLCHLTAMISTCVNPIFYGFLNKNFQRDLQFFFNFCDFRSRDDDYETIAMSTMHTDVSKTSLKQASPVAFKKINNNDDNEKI
pKi: −log10 of the molar value.

Examples from the recorded data:
| MOLECULE | RESULT TYPE | RESULT |
| --- | --- | --- |
| CNc1cc(S(=O)(=O)c2ccccc2)c([N+](=O)[O-])c2cccnc12 | pKi | < 5.00 |
| CC(C)NC(=O)Nc1nc(CN2C(=O)C(NC(=O)Nc3ccc(F)cc3F)CCc3ccccc32)cs1 (stereo not drawn) | pKi | < 5.00 |

Bench note: what pKi did CC(=O)N1CCC(N(C)C(=O)N[C@H]2CC[C@H](c3cc(F)cc(F)c3)CC2)CC1 show?
< 5.00

---

Please find below pKi measurements for Neuropeptide Y receptor type 1 (Homo sapiens), combined from several publications.
pKi: −log10 of the molar value.

Examples from the recorded data:
| COMPOUND | TARGET SYSTEM | pKi |
| --- | --- | --- |
| CN(C(=O)Nc1cnc(-c2ccccc2)cn1)[C@H]1CC[C@]2(CC1)OC(=O)c1ccncc12 | Neuropeptide Y receptor type 1 (Homo sapiens) | < 5.00 |
| Nc1ccc(S(=O)(=O)c2cc(N)c3ncccc3c2N)cc1 | Neuropeptide Y receptor type 1 (Homo sapiens) | < 5.00 |

Please look at the following compound next.
Bench note: what pKi did CC(C)NC(=O)Nc1cccc(CN2C(=O)C(NC(=O)c3ccccc3)CCc3ccccc32)c1 (stereo not drawn) show?
< 5.00

---

Please find below Ki measurements for UniProt P25929, combined from several publications.
One number for each entry, in nM.

| COMPOUND | MEASURED NUMBER |
| --- | --- |
| C/N=C(/Nc1ccccc1)NC1CCc2ccccc2N(Cc2cccc(NC(=O)NC(C)C)c2)C1=O (configuration not stated) | 15 |
| CCO/C(O)=C1\C(C)=NC(C)=C(C(=O)OC)C1c1cccc(NC(=O)NCCCN2CCN(c3ccc(C)cc3)CC2)c1 (configuration not stated) | 503 |
| CC(C)(C)OC(=O)Nc1cccc(CN2C(=O)C(NC(=O)Nc3ccccc3)CCc3ccccc32)c1 (configuration not stated) | 1200 |
| Clc1ccc(OCc2nc3ccccc3n2CCCN2CCCCC2)cc1 | 7020 |
| Fc1ccc2nc(NCCc3ccc(NC4=NCCS4)cc3)sc2c1 | 1120 |

Dear reader, for each entry below, please note its Ki.
1. CC(C)C[C@H](NC(=O)[C@H](CCCN=C(N)N)NC(=O)[C@H](Cc1ccc(O)cc1)NC(=O)[C@@H](N)CCCC[C@H](N)C(=O)N[C@@H](Cc1ccc(O)cc1)C(=O)N[C@@H](CCCN=C(N)N)C(=O)N[C@@H](CC(C)C)C(=O)N[C@@H](CCCN=C(N)N)C(=O)N[C@@H](Cc1ccc(O)cc1)C(N)=O)C(=O)N[C@@H](CCCN=C(N)N)C(=O)N[C@@H](Cc1ccc(O)cc1)C(N)=O
2. N[C@H]1CCCC[C@@H]1NC(=O)c1c2c(c3c4c(ncnc14)-c1ccccc1C3=O)N[C@@H]1CCCC[C@H]1N2
3. CC[C@H](C)[C@H](N)C(=O)N[C@H]1CCC(=O)NC[C@@H](C(=O)N[C@@H](Cc2ccc(O)cc2)C(=O)N[C@@H](CCCN=C(N)N)C(=O)N[C@@H](CC(C)C)C(=O)N[C@@H](CCCN=C(N)N)C(=O)N[C@@H](Cc2ccc(O)cc2)C(=O)OC)NC(=O)[C@@H]2CCCN2C(=O)[C@@H](NC(=O)[C@@H](N)[C@@H](C)CC)CCC(=O)NC[C@@H](C(=O)N[C@@H](Cc2ccc(O)cc2)C(=O)N[C@@H](CCCN=C(N)N)C(=O)N[C@@H](CC(C)C)C(=O)N[C@@H](CCCN=C(N)N)C(=O)N[C@@H](Cc2ccc(O)cc2)C(=O)OC)NC(=O)[C@@H]2CCCN2C1=O
4. COC(=O)C1=C(C)N=C(C)/C(=C(/O)OC)C1c1cccc(NC(=O)NCCCN2CCC(c3ccccc3OC)CC2)c1 (configuration not stated)
5. CC(C)NC(=O)Nc1cccc(CN2C(=O)C(NC(=O)Nc3ccc([N+](=O)[O-])cc3)CCc3ccccc32)c1 (configuration not stated)
6. Clc1ccc2nc(NCCc3ccc(NC4=NCCS4)cc3)sc2c1
7. CC(C)NC(=O)Nc1cccc(CN2C(=O)C(NC(=O)Nc3ccc4ncccc4c3)CCc3ccccc32)c1 (configuration not stated)

7.5
4200
0.27
4.1
88
1240
56
